target: SARS-COV-2 RBD extracellular domain expressed with a C-terminal mouse IgG2a Fc (SARS-CoV-2); experiment: Biacore SPR, mAb captured on anti-hFc, 25 C
Below: a set of entries, each annotated with reported Kd.
Give the number; nM is assumed, so skip it.

Some solved entries appear below for comparison.
{"binder": "mAb14255 (antibody, V domains shown) VH: QVQLQESGPGLVKPSETLSLTCTVSGGSISGYYWSWIRQPPGKGLDWIGYIYYRGNTNYNPSLKSRVTISVDTSNNQFSLKLSSVTAADTAVYYCARYGEGYGDASGYHFDYWGQGTLVTVSS VL: QSALTQPASVSGSPGQSITISCTGTSSDVGSYNLVSWYQQHPGKAPKLMIYEDSKRPSGVANPFSGSKSGNTASLTISGLQAEDEADYYCSSYAGSSTWVFGGGTKLTVLG", "Kd, nM": 0.0726}
{"binder": "mAb15164 (antibody, V domains shown) VH: EVQLVESGGGLVQPGGSLRLSCAASGFAVSSNYMTWVRQAPGKGLEWVATIYSGDSTYYADSVKGRFTISRHNSKNTLSLQMNSLRADDTAIYYCARLSGVLSGTYNGAFDIWGQGTMVTVSS VL: QSALTQPASVSGSPGQSITISCTGTSSDFGNYNIVSWYQQHPGQAPKVMIYEGNKRPSGVSNRFSGSKSGHTASLTISGLQAEDEADYYCSSYAGSSTWVFGGGTKLTVLG", "Kd, nM": 0.0569}

Task item: Fill in the blank: the reported Kd of mAb14280 (antibody, V domains shown) VH: QVQLVQSGAEVKKPGASVRVSCKASGYTFTGNYIHWVRQAPGQGLEWMAWINPNSGGKNYAQKFQGRVTLTRDTSVNTAYMELSRLRSDDTAMYYCARDVNYNILTGPGGLWGQGTLVTVSS VL: QSALTQPPSASGSPGQSVTISCTGTSSDVGGYNFVSWYQQHPGKAPKLMIYEVSKRPSGVPDRFSGSKSGNTASLTVSGLQAEDEADYYCSSYAGSNNFVFGTGTKVTVLG is ____.
Reply: 0.123
